MEASURED_TARGET: D(2) dopamine receptor (Homo sapiens) (UniProt P14416)
Sequence (P14416 whole entry, looked up): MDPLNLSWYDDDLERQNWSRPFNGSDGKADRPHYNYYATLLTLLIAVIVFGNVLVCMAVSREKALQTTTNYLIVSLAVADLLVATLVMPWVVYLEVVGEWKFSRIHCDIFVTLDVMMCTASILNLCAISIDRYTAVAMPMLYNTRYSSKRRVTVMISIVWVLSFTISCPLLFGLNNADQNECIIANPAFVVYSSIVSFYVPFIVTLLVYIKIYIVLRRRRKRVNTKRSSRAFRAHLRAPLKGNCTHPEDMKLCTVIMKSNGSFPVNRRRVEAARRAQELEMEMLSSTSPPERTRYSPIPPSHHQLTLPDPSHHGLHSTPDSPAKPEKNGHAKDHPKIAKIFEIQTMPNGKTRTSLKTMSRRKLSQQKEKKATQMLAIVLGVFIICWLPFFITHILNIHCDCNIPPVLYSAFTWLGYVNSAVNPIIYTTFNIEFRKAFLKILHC
ASSAY_NOTES: Dopamine D2 receptor (DRD2) small molecule antagonists, cell-based qHTS assay (AID 1963595); also: % is scaled to controls: 0 for no effect and ±100 for the full control effect
TEST_SETTINGS: HEK293-DRD2 cAMP HTRF antagonist mode; series mostly up to 92.4 µM
Records with an inconclusive call do not appear. The source made the active and inactive calls. Calls follow the shape of the dose curve; as a rule, active = well fitted inhibition curve with a large enough effect in the signal ratio in the repeat runs, with a control signal flat; inconclusive = weak or mixed curves, or effect the other way; inactive = flat fitted curve, though single readings scatter; the % refers to the signal ratio.
Outcomes you can answer with include only these: class 1 for active, class 0 for inactive

c1cc(OCC2CO2)cc(OCC2CO2)c1 (stereo unspecified): class 0

Now take the following compound into account.
Give the logged outcome of this assay for the following compound: O=C(O)c1ccc(S(=O)(=O)O)cc1C(=O)O
class 0

----------
ASSAY_NOTES: G protein-coupled receptor (GPCR) small molecule agonists, calcium flux assay: HEK293 wild type cell line counter screen (AID 1920065); also: % is scaled to controls: 0 for no effect and ±100 for the full control effect
TEST_SETTINGS: HEK293 WT calcium flux, fluorescence, agonist mode; series mostly up to 57.6 µM
The source made the active and inactive calls. The call rests on the fitted dose curve.
ASSAY_METRIC: activation

Answered examples (5):
O=CO: -0.0753% [at 5.23 µM] (inactive)
CN(C/C=C/c1ccccc1)Cc1cccc2ccccc12: inactive
Cc1ccc(OC(=O)CC(C)C)cc1: inactive
NNC(=O)CP(=O)(c1ccccc1)c1ccccc1: inactive
CCCCCCCCCCCCCCCCCBr: -0.0398% [at 11.8 µM] (inactive)

# query: activation of entry COc1ccc2cc(S(=O)(=O)N[C@H](CC(=O)N[C@H](Cc3ccc(CN4[C@H](C)CCC[C@@H]4C)cc3)C(=O)N(C)C(C)C)c3ccc4c(c3)OCO4)ccc2c1
inactive

# query: activation of entry CNc1ccc([N+](=O)[O-])cc1
inactive

# query: activation of entry NCCCN1CCOCC1
inactive

# query: activation of entry COC(C)(C)OC
inactive

# query: activation of entry O=C(/C=C/c1ccc(O)c(O)c1)O[C@@H]1C[C@@](OC(=O)/C=C/c2ccc(O)c(O)c2)(C(=O)O)C[C@@H](O)[C@@H]1O
inactive

# query: activation of entry NCCCC(O)(P(=O)(O)O)P(=O)(O)O
inactive

# query: activation of entry CC(O)C#CC(C)O (stereo not given)
inactive

# query: activation of entry BrCCOc1ccccc1
inactive

# query: activation of entry COC(C)CCO (stereo not given)
inactive

# query: activation of entry Oc1cccc2c(O)cccc12
inactive

----------
MEASURED_TARGET: Muscarinic acetylcholine receptor M1 (Homo sapiens) (UniProt P11229)
Sequence (P11229 whole entry, looked up): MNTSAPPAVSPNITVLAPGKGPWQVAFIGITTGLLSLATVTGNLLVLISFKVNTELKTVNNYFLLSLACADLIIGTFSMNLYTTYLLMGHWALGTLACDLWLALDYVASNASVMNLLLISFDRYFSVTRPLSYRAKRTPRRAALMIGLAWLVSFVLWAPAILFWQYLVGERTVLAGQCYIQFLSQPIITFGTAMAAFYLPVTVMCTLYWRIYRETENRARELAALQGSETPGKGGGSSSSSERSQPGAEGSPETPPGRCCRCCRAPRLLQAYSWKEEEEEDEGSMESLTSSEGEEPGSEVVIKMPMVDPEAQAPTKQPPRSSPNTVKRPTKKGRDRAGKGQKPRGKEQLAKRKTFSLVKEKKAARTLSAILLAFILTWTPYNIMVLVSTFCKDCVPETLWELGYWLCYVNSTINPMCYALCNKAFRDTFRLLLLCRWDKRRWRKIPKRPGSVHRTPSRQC
ASSAY_NOTES: Cholinergic receptor muscarinic 1 (CHRM1) small molecule antagonists, cell-based qHTS assay (AID 1963588); also: nearly all actives have a fitted effect of over 40% in size
TEST_SETTINGS: CHRM1-CHO antagonist mode, calcium flux fluorescence; series mostly up to 61.5 µM
Inconclusive results are not listed. Calls of active or inactive are those of the source. The call rests on the fitted dose curve.
Outcomes you can answer with include only these: Yes (active), No (inactive)

A selection of reference data follows.
CC(=O)OC(C)OC(C)=O: No
NC1(c2ccc(-c3nc4ccn5c(=O)[nH]nc5c4cc3-c3ccccc3)cc2)CCC1: Yes
CCCCOCCOCCOCCOCCO: No
CCOc1ccc2nc3cc(N)ccc3c(N)c2c1: No
CCC(C)(CCC(C)C)C(=O)[O-].CCC(C)(CCC(C)C)C(=O)[O-].[Zn+2] (centres undefined): No
CCCCC1C(=O)N(c2ccccc2)N(c2ccc(O)cc2)C1=O (centres undefined): No

Now take the following compound into account.
Give the logged outcome of this assay for the following compound: COC(=O)CCCCCCCC(=O)OC
No
